- METHOD DESCRIPTION: fission yeast growth modulation, primary screen, strain 972, OD600, 24 h, no modulator (AID 1090);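 also: basal condition with compound alone and no growth modifier present; test concentration not given here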
- CONDITION SET: S. pombe 972 growth, higher = more signal, called active from +8 up or from −8 down
MEASURE NAME: z-score
Give bare numbers.

Form field z-score, entry C=CCC(OC(C)=O)[C@@H]1[C@@H](N(Cc2ccc(-c3cccc(C(F)(F)F)c3)o2)C(=O)c2ccc(-c3ccccc3)cc2)c2cc(OCCCO)ccc2N1C(=O)c1ccc2ccccc2n1 (stereo partly drawn) : 0.789

# z-score of C=C(C(=O)CC[C@@H](OC(C)=O)c1ccc(CO)o1)C(C)C = -0.357

Further cases:
Noted for CC=CC(O)C1C=CC2C(=O)N(c3ccccc3)C(=O)C2N1Nc1ccccc1F (stereo not drawn) : its z-score reads 1.4
